molecular target: Human albumin (Homo sapiens); assay: Prevention of albumin glycation at physiologically significant sites (ELISA with anti-glycated albumin monoclonal antibody); format: biochemical; settings: human albumin 10 mg/ml, 40 mM glucose, 4 days, compound 1-1000 μM
pIC50: −log10 of the molar value.
ENDPOINT_LABEL: pIC50

1: O=C(O)Cc1ccccc1Nc1cccc(Cl)c1
2: CC1=C(CC(=O)O)c2cc(F)ccc2/C1=C\c1ccc([S+](C)[O-])cc1 (centres unmarked) [reference compound]
Query :: Which one would you say has the larger pIC50 value: 1 , or 2 ? Your choice should be expressed through its label.
Result :: 1

----------
Target: Human albumin (Homo sapiens, UniProt P02768)
Sequence (P02768 25-609): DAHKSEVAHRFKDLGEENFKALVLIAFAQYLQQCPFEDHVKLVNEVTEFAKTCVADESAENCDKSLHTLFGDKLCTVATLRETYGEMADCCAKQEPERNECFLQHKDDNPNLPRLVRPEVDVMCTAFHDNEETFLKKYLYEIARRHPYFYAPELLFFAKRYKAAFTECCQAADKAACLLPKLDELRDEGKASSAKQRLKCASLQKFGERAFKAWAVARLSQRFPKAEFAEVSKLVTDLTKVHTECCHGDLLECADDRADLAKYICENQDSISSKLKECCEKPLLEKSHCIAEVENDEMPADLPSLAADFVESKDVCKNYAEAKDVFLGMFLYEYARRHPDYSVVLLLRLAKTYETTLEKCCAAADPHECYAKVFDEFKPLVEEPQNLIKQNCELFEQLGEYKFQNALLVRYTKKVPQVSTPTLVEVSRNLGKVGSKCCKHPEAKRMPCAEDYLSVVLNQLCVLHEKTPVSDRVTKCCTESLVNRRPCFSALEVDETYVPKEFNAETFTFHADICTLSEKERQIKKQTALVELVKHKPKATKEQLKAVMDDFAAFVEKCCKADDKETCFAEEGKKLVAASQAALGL
Assay: Anti-glycation activity of 2-(phenylamino)phenylacetic acids (glycated albumin ELISA)
Assay type: biochemical
Conditions: ratio of glycation IC50 to cyclo-oxygenase IC50
Method: After dialysis to remove free glucose and compound, the amount of glycated albumin formed was determined by enzyme-linked immunosorbent assay using the monoclonal antibodies known to specifically react with Amadori-glucose adducts in glycated albumin and to be unreactive with the nonglycated protein. […]
ENDPOINT_LABEL: Antiglycation IC50 versus COX Inhibition IC50 (ratio)

Cc1cccc(C)c1Nc1ccccc1CC(=O)O [Example 13]
19.0

A: O=C(O)Cc1ccccc1Nc1ccccc1Cl [Example 4]
B: O=C(O)Cc1ccccc1Nc1ccc(Cl)cc1Cl [Example 8]
C: O=C(O)Cc1ccccc1Nc1cccc(Cl)c1 [Example 5]
Query :: Order by Antiglycation IC50 versus COX Inhibition IC50 (ratio), ascending. The labels, placed in the requested order, form the answer.
Result :: C, A, B
(C: 0.08, A: 0.24, B: 0.90)

----------
target: cyclo-oxygenase (Bos taurus, UniProt O62664); experiment: Cyclo-oxygenase inhibition, conversion of arachidonic acid to prostaglandin E2 in bovine seminal vesicle homogenates; settings: arachidonic acid to prostaglandin E2, 1-30 minutes, read-out: COX Inhibition IC50
Sequence (O62664 25-600): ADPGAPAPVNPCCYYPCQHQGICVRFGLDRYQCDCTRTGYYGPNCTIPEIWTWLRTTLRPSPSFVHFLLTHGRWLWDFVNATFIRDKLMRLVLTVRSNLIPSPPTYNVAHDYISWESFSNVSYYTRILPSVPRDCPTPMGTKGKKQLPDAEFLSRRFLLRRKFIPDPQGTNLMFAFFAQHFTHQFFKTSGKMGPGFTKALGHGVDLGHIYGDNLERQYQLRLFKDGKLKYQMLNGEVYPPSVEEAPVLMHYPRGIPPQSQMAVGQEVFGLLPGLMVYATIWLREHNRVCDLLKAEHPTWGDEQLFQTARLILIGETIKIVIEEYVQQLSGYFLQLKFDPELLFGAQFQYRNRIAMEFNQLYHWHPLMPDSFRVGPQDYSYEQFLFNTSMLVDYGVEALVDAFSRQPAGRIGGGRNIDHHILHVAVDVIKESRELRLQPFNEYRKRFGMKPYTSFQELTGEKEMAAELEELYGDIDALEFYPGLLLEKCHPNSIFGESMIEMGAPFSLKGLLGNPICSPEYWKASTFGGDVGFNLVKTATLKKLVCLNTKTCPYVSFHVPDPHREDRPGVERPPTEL
pIC50: −log10 of the molar value.
ENDPOINT_LABEL: pIC50

O=C(O)Cc1ccccc1Nc1ccccc1Cl
4.38
O=C(O)Cc1ccccc1Nc1ccc(Cl)c(Cl)c1
3.85
O=C(O)Cc1ccccc1Nc1ccc(Cl)cc1
4.01

I: O=C(O)Cc1ccccc1Nc1ccc(Cl)cc1Cl
II: O=C(O)Cc1ccccc1Nc1ccccc1 [Example 3, 2-[(phenyl)amino]phenylacetic acid]
III: Cc1cccc(C)c1Nc1ccccc1CC(=O)O
IV: O=C(O)Cc1ccccc1Nc1cccc(Cl)c1
Query :: Endpoint returns the given molecules ordered by ascending pIC50. List the labels in the requested order.
Result :: IV, II, I, III

----------
biological target: Human albumin (Homo sapiens); experiment: Anti-glycation activity of 2-(phenylamino)phenylacetic acids (glycated albumin ELISA); assay type: biochemical; conditions: human albumin 10 mg/ml, 0-50 mM glucose, 48-144 hours, 37° C.; read-out: Glycation Inhibition IC50
pIC50: −log10 of the molar value.
ENDPOINT_LABEL: pIC50

Cc1cccc(C)c1Nc1ccccc1CC(=O)O
3.95
O=C(O)Cc1ccccc1Nc1ccc(Cl)cc1
4.96
O=C(O)Cc1ccccc1Nc1cccc(Cl)c1
4.30

a: O=C(O)Cc1ccccc1Nc1ccccc1Cl
b: O=C(O)Cc1ccccc1Nc1ccc(Cl)cc1Cl
Query :: So which one has the bigger pIC50 here, a or b ? Your answer should be the label attached to the chosen record.
Result :: a
(a: 5.00, b: 4.20)

a: O=C(O)Cc1ccccc1Nc1ccccc1 [Example 3, 2-[(phenyl)amino]phenylacetic acid]
b: O=C(O)Cc1ccccc1Nc1ccc(Cl)c(Cl)c1
Query :: Higher pIC50 between a and b ? Your choice should be expressed through its label.
Result :: b

----------
Target: Human albumin (Homo sapiens, UniProt P02768)
Assay: Anti-glycation activity of 2-(phenylamino)phenylacetic acids (glycated albumin ELISA)
Format: biochemical
Conditions: ratio of glycation IC50 to cyclo-oxygenase IC50
Protocol: After dialysis to remove free glucose and compound, the amount of glycated albumin formed was determined by enzyme-linked immunosorbent assay using the monoclonal antibodies known to specifically react with Amadori-glucose adducts in glycated albumin and to be unreactive with the nonglycated protein. […]
ENDPOINT_LABEL: Antiglycation IC50 versus COX Inhibition IC50 (ratio)

O=C(O)Cc1ccccc1Nc1ccc(Cl)c(Cl)c1
0.02

A: O=C(O)Cc1ccccc1Nc1ccccc1 [Example 3, 2-[(phenyl)amino]phenylacetic acid]
B: O=C(O)Cc1ccccc1Nc1ccc(Cl)cc1
Query :: In terms of reported Antiglycation IC50 versus COX Inhibition IC50 (ratio), does A or B have the smaller number? Indicate which entry you chose by stating its label.
Result :: B
(B: 0.11, A: 0.54)

Recorded values, source patent US6552077B2.
